# tgt: T1, Human CD137 ECD (human)
# T1 construct: entry includes C-terminal His-tag and biotin acceptor peptide; also called human CD137 extracellular domain; 4-1BB
# test-protocol: Biacore SPR, vs parent H183/L072
Label yes for high-side fold change of affinity (at or above 0.2 fold) and no for low-side fold change of affinity (below it).

- binder: "H183/L072 VL A89S (antibody, name in Kabat numbering, V domains shown, Dual-Ig) VH: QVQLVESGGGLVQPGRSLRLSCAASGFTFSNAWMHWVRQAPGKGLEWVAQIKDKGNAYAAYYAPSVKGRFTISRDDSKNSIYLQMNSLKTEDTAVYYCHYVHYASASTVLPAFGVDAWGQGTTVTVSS VL: DIVMTQSPLSLPVTPGEPASISCQASQELVHMNRNTYLHWYQQKPGQAPRLLIYKVSNRFPGVPDRFSGSGSGTDFTLKISRVEAEDVGVYYCSQGTSVPFTFGQGTKLEIK"
  class: "no"
- binder: "H183/L072 VL N28L (antibody, name in Kabat numbering, V domains shown, Dual-Ig) VH: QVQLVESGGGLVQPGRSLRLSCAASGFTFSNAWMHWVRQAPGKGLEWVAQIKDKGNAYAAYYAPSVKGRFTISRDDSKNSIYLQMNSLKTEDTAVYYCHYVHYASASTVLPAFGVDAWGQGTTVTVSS VL: DIVMTQSPLSLPVTPGEPASISCQASQELVHMLRNTYLHWYQQKPGQAPRLLIYKVSNRFPGVPDRFSGSGSGTDFTLKISRVEAEDVGVYYCAQGTSVPFTFGQGTKLEIK"
  class: "yes"
- binder: "H183/L072 VL N53G (antibody, name in Kabat numbering, V domains shown, Dual-Ig) VH: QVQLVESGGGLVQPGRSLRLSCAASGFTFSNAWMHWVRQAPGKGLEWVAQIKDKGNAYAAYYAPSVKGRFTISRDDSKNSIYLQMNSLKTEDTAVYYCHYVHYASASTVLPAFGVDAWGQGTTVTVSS VL: DIVMTQSPLSLPVTPGEPASISCQASQELVHMNRNTYLHWYQQKPGQAPRLLIYKVSGRFPGVPDRFSGSGSGTDFTLKISRVEAEDVGVYYCAQGTSVPFTFGQGTKLEIK"
  class: "yes"
- binder: "H183/L072 VL S93E (antibody, name in Kabat numbering, V domains shown, Dual-Ig) VH: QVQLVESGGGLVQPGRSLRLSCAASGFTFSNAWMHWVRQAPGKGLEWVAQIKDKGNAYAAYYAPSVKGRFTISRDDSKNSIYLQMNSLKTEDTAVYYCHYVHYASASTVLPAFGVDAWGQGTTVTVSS VL: DIVMTQSPLSLPVTPGEPASISCQASQELVHMNRNTYLHWYQQKPGQAPRLLIYKVSNRFPGVPDRFSGSGSGTDFTLKISRVEAEDVGVYYCAQGTEVPFTFGQGTKLEIK"
  class: "yes"
- binder: "H183/L072 VL T92A (antibody, name in Kabat numbering, V domains shown, Dual-Ig) VH: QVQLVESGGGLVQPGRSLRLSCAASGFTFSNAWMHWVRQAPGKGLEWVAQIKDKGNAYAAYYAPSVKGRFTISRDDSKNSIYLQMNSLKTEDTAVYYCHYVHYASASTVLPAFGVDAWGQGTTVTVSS VL: DIVMTQSPLSLPVTPGEPASISCQASQELVHMNRNTYLHWYQQKPGQAPRLLIYKVSNRFPGVPDRFSGSGSGTDFTLKISRVEAEDVGVYYCAQGASVPFTFGQGTKLEIK"
  class: "yes"
- binder: "H183/L072 VL K50R (antibody, name in Kabat numbering, V domains shown, Dual-Ig) VH: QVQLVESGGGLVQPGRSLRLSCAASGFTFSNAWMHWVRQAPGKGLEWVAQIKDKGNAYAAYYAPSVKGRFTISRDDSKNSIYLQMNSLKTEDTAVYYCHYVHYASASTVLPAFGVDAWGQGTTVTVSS VL: DIVMTQSPLSLPVTPGEPASISCQASQELVHMNRNTYLHWYQQKPGQAPRLLIYRVSNRFPGVPDRFSGSGSGTDFTLKISRVEAEDVGVYYCAQGTSVPFTFGQGTKLEIK"
  class: "yes"
- binder: "H183/L072 VL E27aY (antibody, name in Kabat numbering, V domains shown, Dual-Ig) VH: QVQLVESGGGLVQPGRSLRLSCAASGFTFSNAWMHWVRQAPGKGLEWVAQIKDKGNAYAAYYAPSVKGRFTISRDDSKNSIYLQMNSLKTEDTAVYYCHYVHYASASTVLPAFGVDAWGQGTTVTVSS VL: DIVMTQSPLSLPVTPGEPASISCQASQYLVHMNRNTYLHWYQQKPGQAPRLLIYKVSNRFPGVPDRFSGSGSGTDFTLKISRVEAEDVGVYYCAQGTSVPFTFGQGTKLEIK"
  class: "yes"

Now let's try a different one.
Input line: Textbook exercise: given the entry H183/L072 VL P95H (antibody, name in Kabat numbering, V domains shown, Dual-Ig) VH: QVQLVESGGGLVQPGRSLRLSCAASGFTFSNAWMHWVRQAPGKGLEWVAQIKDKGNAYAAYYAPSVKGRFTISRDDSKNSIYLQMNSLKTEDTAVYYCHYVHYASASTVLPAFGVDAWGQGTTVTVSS VL: DIVMTQSPLSLPVTPGEPASISCQASQELVHMNRNTYLHWYQQKPGQAPRLLIYKVSNRFPGVPDRFSGSGSGTDFTLKISRVEAEDVGVYYCAQGTSVHFTFGQGTKLEIK , state whether its fold change of affinity is greater than or equal to 0.2 fold.
Output line: no
